Target: human recombinant CB1R (Homo sapiens (Human), UniProt P21554)
Sequence (P21554 whole entry): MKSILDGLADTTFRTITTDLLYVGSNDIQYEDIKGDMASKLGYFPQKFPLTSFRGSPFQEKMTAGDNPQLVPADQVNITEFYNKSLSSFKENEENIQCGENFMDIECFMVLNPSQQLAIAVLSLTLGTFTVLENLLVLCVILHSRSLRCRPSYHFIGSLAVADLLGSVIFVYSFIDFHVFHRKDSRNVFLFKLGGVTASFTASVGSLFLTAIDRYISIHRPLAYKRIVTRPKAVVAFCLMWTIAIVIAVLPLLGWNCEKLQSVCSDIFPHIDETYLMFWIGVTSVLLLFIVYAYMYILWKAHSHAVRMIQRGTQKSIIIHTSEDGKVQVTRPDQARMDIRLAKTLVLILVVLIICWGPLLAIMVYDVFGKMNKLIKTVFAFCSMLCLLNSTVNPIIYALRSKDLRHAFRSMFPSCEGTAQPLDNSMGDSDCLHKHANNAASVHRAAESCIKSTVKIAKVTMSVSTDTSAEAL
Test: CB1 receptor binding assay ([3H]CP-55,940 displacement, HEK-293 membranes)
Details: membranes of HEK-293 cells with human recombinant CB1R, [3H]CP-55,940; read-out: CB1 IC50
MEASURE: IC50

IC50 value, target or system human recombinant CB1R (Homo sapiens (Human), UniProt P21554), for CC(C)c1cnc2c(c1)cc(C(=O)NC13CC(C1)C3)c(=O)n2Cc1ccc(F)cc1 : 0.413 µM

IC50 value, target or system human recombinant CB1R (Homo sapiens (Human), UniProt P21554), for CC1CCC(NC(=O)c2cc3cc(-c4ccc(OC(F)F)cc4)cnc3n(CCN3CCOCC3)c2=O)CC1 (stereo not shown) : > 10 µM

IC50 value, target or system human recombinant CB1R (Homo sapiens (Human), UniProt P21554), for N#Cc1ccc(-c2cnc3c(c2)cc(C(=O)NC24CC(C2)C4)c(=O)n3CCN2CCOCC2)nc1 : > 10 µM

IC50 value, target or system human recombinant CB1R (Homo sapiens (Human), UniProt P21554), for O=C(NC1CC2(CCC2)C1)c1cc2cc(Br)cnc2n(Cc2ccc(F)cn2)c1=O : > 10 µM

###

Hi there, I'd appreciate the recorded pIC50 for every entry that follows.
Target: human CB2 receptor (Homo sapiens (Human), UniProt P34972)
Sequence (P34972 whole entry): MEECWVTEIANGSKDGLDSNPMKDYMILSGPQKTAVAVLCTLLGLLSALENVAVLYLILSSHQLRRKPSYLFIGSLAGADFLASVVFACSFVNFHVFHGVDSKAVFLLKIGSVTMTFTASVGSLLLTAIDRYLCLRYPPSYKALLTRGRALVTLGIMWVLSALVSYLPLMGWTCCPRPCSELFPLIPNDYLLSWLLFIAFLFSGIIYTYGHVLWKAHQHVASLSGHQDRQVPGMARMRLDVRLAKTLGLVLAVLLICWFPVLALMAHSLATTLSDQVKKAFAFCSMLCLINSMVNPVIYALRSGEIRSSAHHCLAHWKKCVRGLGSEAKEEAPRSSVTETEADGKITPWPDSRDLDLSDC
Experiment: CB2 receptor binding assay ([3H]CP-55,940 displacement, HEK-293 membranes)
Settings: membranes of HEK-293 cells with human recombinant CB2R, [3H]CP-55,940; class symbols; read-out: CB2 IC50
pIC50: −log10 of the molar value.

Field pIC50 (entry O=C(NC12CC(C1)C2)c1c(O)c2cc(-c3ccncc3)cnc2n(CCN2CCOCC2)c1=O ) reads < 6.00

Field pIC50 (entry CC(NC(=O)c1cc2cc(-c3ccc(C#N)cc3)cnc2n(CCN2CCOCC2)c1=O)c1ccc(F)cc1 (stereo not shown) ) reads > 7.00

Field pIC50 (entry COc1ccc(-c2cnc3c(c2)c(C)c(C(=O)NC2CC4(CCC4)C2)c(=O)n3CCN2CCOCC2)cc1 ) reads < 6.00

Field pIC50 (entry O=C(NC12CC(C1)C2)c1c(O)c2nccnc2n(CCN2CCOCC2)c1=O ) reads < 6.00

Field pIC50 (entry O=C(NC12CC(C1)C2)c1c(O)c2cc(-c3ccc(F)cc3)cnc2n(CCN2CC3CC(C2)O3)c1=O ) reads < 6.00

Field pIC50 (entry CC(C)c1cnc2c(c1)cc(C(=O)N[C@H](C)c1ccc(F)cc1)c(=O)n2Cc1ccc(F)cc1 ) reads > 7.00

Field pIC50 (entry CC(C)c1cnc2c(c1)cc(C(=O)NC1(c3ccc(C#N)cc3)CC1)c(=O)n2Cc1ccc(F)cc1 ) reads > 7.00

###

Target: human CB2 receptor (Homo sapiens (Human), UniProt P34972)
Test: CB2 receptor cAMP assay (DiscoverX HitHunter cAMP XS+)
Type: cell-based
Details: CHO-K1, read-out: Max Stimulation %
Lab note - cut at 80% for Emax: criterion met if strictly below, criterion not met if not.

Just wondering, is Emax of N#Cc1ccc(-c2cnc3c(c2)cc(C(=O)NC24CC(C2)C4)c(=O)n3CCN2CCOCC2)cc1 [Compound 46] below 80%? criterion met

Just wondering, is Emax of C[C@@H](NC(=O)c1cc2cc(C3CC3)cnc2n(Cc2ccc(F)cc2)c1=O)c1ccc(F)cc1 [Compound 94] below 80%? criterion met

Just wondering, is Emax of CC(C)(NC(=O)c1cc2cc(-c3ccc(C#N)cn3)cnc2n(CCN2CCOCC2)c1=O)c1ccc(F)cc1 [Compound 40] below 80%? criterion met

Just wondering, is Emax of N#Cc1ccc(-c2cnc3c(c2)cc(C(=O)NC2(c4ccc(F)cc4)CC2)c(=O)n3CCN2CCOCC2)nc1 [Compound 42] below 80%? criterion met

Just wondering, is Emax of CC1CCC(NC(=O)c2cc3cc(Br)cnc3n(CCN3CCOCC3)c2=O)CC1 (stereo not shown) [Compound 61] below 80%? criterion not met

Just wondering, is Emax of COc1ccc(-c2cnc3c(c2)cc(C(=O)NC(C)c2ccc(F)cc2)c(=O)n3CCN2CCOCC2)cc1 (stereo not shown) [Compound 30] below 80%? criterion not met

Just wondering, is Emax of CC1CCC(NC(=O)c2c(O)c3cc(-c4ccc(F)cc4)cnc3n(CCN3CCOCC3)c2=O)CC1 (stereo not shown) [Compound 5] below 80%? criterion met

Just wondering, is Emax of COc1ccc(-c2cnc3c(c2)c(O)c(C(=O)NC24CC(C2)C4)c(=O)n3CCN2CCOCC2)cc1 [Compound 13] below 80%? criterion met

Just wondering, is Emax of CC1CCC(NC(=O)c2cc3cc(-c4ccc(C#N)cn4)cnc3n(CCN3CCOCC3)c2=O)CC1 (stereo not shown) [Compound 57] below 80%? criterion met

Just wondering, is Emax of C[C@@H](NC(=O)c1cc2cc(C3COC3)cnc2n(Cc2ccc(F)cc2)c1=O)c1ccc(F)cc1 [Compound 103] below 80%? criterion not met

Just wondering, is Emax of O=C(NC1CC2(CCC2)C1)c1cc2cc(-c3ccc(OC(F)F)cc3)cnc2n(CCN2CCOCC2)c1=O [Compound 52] below 80%? criterion met

Just wondering, is Emax of CC1CCC(NC(=O)c2c(O)c3cc(-c4ccc(C#N)cc4)cnc3n(CCN3CCOCC3)c2=O)CC1 (stereo not shown) [Compound 16] below 80%? criterion met

Just wondering, is Emax of C[C@@H](NC(=O)c1cc2cc(C3COC3)cnc2n(Cc2ccc(F)cc2)c1=O)c1ccc(C#N)cc1 [Compound 101] below 80%? criterion met

Just wondering, is Emax of COc1ccc(-c2cnc3c(c2)c(O)c(C(=O)NC2CCC(C)CC2)c(=O)n3CCN2CCOCC2)cc1 (stereo not shown) [Compound 20] below 80%? criterion not met

Just wondering, is Emax of N#Cc1ccc(C2(NC(=O)c3cc4cc(Br)cnc4n(Cc4ccc(F)cc4)c3=O)CC2)cc1 [Compound 92] below 80%? criterion not met

Just wondering, is Emax of O=C(NC12CC(C1)C2)c1cc2cc(Br)cnc2n(Cc2ccc(F)cc2)c1=O [Compound 82] below 80%? criterion not met

Source listed as patent US11564928B1.
